# protocol-text: Determination of Dissociation Constant (pKa) by Potentiometric Titration Method
# Type: physicochemical
# condition-details: ultrapure water, pH 4.5, Table 1, 0.1 mg/ml, 22° C.
Listing of entries alongside the reported pKa.
endpoint: pKa

>>> print(df.to_string())
                                   molecule  endpoint  reported_result
0  O=C(O)c1ccc(OCCO)cc1 [Compound 1, 4-(2-hydroxyethoxy) benzoic acid]       pKa             4.95
1  O=C(O)c1ccc(O[C@@H]2O[C@H](CO)[C@H](O)[C@H](O)[C@H]2O)cc1       pKa              4.5
2  O=C(O)c1ccc(OCC(O)CO)cc1 (stereo not shown) [Compound 2, 4-(2,3-dihydroxypropoxy) benzoic acid]       pKa              4.6
3  O=C(O)c1ccc(OC2OC(CO)C(O)C2O)cc1 (stereo not shown)       pKa              4.6
4  O=C(O)c1ccc(OC2CC(O)C(CO)O2)cc1 (stereo not shown)       pKa              5.6
5  CC(O)COc1ccc(C(=O)O)cc1 (stereo not shown) [Compound 7, 4-(2-hydroxypropoxy) benzoic acid]       pKa              5.6
6  O=C(O)c1ccc(OCCCCO)cc1 [Compound 6, 4-(4-hydroxybutoxy) benzoic acid]       pKa              4.6
